- System: Hek293T
- Protocol: Primary qHTS to identify gynecologic anti-cancer compounds using libraries of approved drugs and bioactive compounds (AID 1345084); further: nearly all actives have a fitted effect of over 55% in size
- Test settings: Gynecologic cancer cell panel viability, ATPlite luminescence, 48 h, control line for the selectivity index; series mostly up to 57.5 µM
Inconclusive results are not listed. Active and inactive are the calls of the source. The call rests on the fitted dose curve; in most records, active means well fitted cell-killing curve with a large enough effect; inconclusive means small, poorly fitted or top-dose-only effect, or effect the other way; inactive means flat fitted curve, though single readings scatter.
Just give me one of these, please: active, inactive

Compound: Clc1ccc(C(Cn2ccnc2)OCc2c(Cl)cccc2Cl)c(Cl)c1 (stereo unspecified)
Measured on: Hek293T
Assigned label: inactive

Compound: c1cnc2cc3c(cc2n1)C1CNCC3C1
Measured on: Hek293T
Assigned label: inactive

Compound: COCCCN1CCC(NC(=O)c2cc(Cl)c(N)c3c2OCC3)CC1
Measured on: Hek293T
Assigned label: inactive

Compound: Cc1c(OCC(F)(F)F)ccnc1CS(=O)c1nc2ccccc2[nH]1 (stereo unspecified)
Measured on: Hek293T
Assigned label: inactive

Moving on to another compound below.
# lookup: test call for CC(C)c1ccc2oc3nc(N)c(C(=O)O)cc3c(=O)c2c1
active

###

Can you tell me growth, % of control for the items I'm about to list?
- Protocol: qHTS profiling of the MIPE4 collection as inhibitors of Plasmodium falciparum (HB3) proliferation (AID 743347);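 further: plate controls were DMSO vehicle wells for no effect and artemisinin wells for full effect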
- Test settings: P. falciparum HB3 in erythrocytes, SYBR Green DNA, 72 h; at 28.5 µM (top of the series) unless noted
- Procedure: Plasmodium falciparum is a virulent malarial parasite that kills 1-2 million people worldwide each year. […] Because mature erythrocytes lack DNA, only Plasmodium-derived DNA is detected. The SYBR Green viability assay was adapted from a method described previously (Plouffe et al., 2008). […] The following morning, fluorescence intensity at 485(14) nm excitation and 535(25) nm emission wavelengths was measured on an EnVision (Perkin Elmer) plate reader. […]
Answers are plain numbers, in %.

Compound: Cc1c(C(=O)NN2CCCCC2)nn(-c2ccc(Cl)cc2Cl)c1-c1ccc(Cl)cc1
Value reported: 8.97

Please report growth, % of control for every entry that follows.
1. O=c1c(O)c(-c2ccc(O)cc2O)oc2cc(O)cc(O)c12
2. Nc1nc(Cl)nc2c1ncn2[C@H]1C[C@H](O)[C@@H](CO)O1

[99.8, 103]

###

- Test system: NIH3T3
- Protocol: Cytotoxic Profiling of Annotated Libraries Using Quantitative High-Throughput Screening (AID 1296008); further: nearly all actives have a fitted effect of over 60% in size
- Test settings: Five cell lines viability, CellTiter-Glo ATP luminescence, 48-72 h
Records with an inconclusive call do not appear. Active and inactive are the calls of the source. Calls come from the whole dose curve; as a rule, active = well fitted inhibition curve with a large enough effect; inconclusive = small, poorly fitted or top-dose-only effect; inactive = flat fitted curve, though single readings scatter.
Just give me one of these, please: true for active, false for inactive

Compound: CCCCc1ccc2nc(NC(=O)OC)[nH]c2c1
Assigned label: true

# lookup: test call for CC(=O)Nc1ccc(O)cc1
false

# lookup: test call for CC1=C(C(=O)O)N2C(=O)[C@@H](NC(=O)[C@H](N)C3=CCC=CC3)[C@H]2SC1
false

# lookup: test call for CN(C)C(=O)COC(=O)Cc1ccc(OC(=O)c2ccc(N=C(N)N)cc2)cc1
false

# lookup: test call for O=C(O)CCNC(=O)c1ccc(N=Nc2ccc(O)c(C(=O)O)c2)cc1
false

# lookup: test call for Cc1cc2c(s1)Nc1ccccc1N=C2N1CCN(C)CC1
false

# lookup: test call for C[C@]12CCC(=O)C=C1CC[C@@H]1[C@H]2[C@@H](O)C[C@@]2(C)[C@H]1CC[C@]2(O)C(=O)CO
false

# lookup: test call for Clc1ccc(C(Cn2ccnc2)OCc2c(Cl)cccc2Cl)c(Cl)c1 (configuration not stated)
false

# lookup: test call for c1cnc2cc3c(cc2n1)C1CNCC3C1
false
